RESULT_TYPE: melting point (°C)

CC(C)(C)N(C(=O)COc1nnc(C(F)(F)F)s1)c1ccc(F)cc1 | 85
CC(C)(C)N(C(=O)COc1nnc(C(F)(F)F)s1)c1cccc(Cl)c1 | 84

[P] C#CCN(C(=O)COc1nc2ccccc2o1)c1ccc(F)cc1
[Q] C#CCN(C(=O)CO)c1ccc(F)cc1
[R] CC(C)(C)N(C(=O)COc1nnc(C(F)(F)F)s1)c1ccc(Cl)cc1
Enquiry: Please list the entries, largest melting point first. To answer, write out the labels according to the requested order.
Return: P, R, Q

====

ASSAY_OVERVIEW: logP by HPLC on reversed-phase column (EEC directive 79/831 Annex V.A8)
Assay type: physicochemical
CONDITION_CONTEXT: reversed-phase HPLC column (C 18); pH=2.3; read-out: logP (at pH=2.3)
RESULT_TYPE: chromatographic logP
I'd appreciate a reply containing only the number, no unit.

Enquiry: Bench note: what chromatographic logP did CC(C)(C)N(C(=O)CO)c1ccc(Cl)cc1 [III-1] show?
Return: 2.54

====

ASSAY_OVERVIEW: logP by HPLC on reversed-phase column (EEC directive 79/831 Annex V.A8)
Assay type: physicochemical
CONDITION_CONTEXT: reversed-phase HPLC column (C 18); pH=2.5; read-out: logP (at pH=2.5)
RESULT_TYPE: chromatographic logP
I'd appreciate a reply containing only the number, no unit.

Enquiry: Bench note: what chromatographic logP did `CC(C)(C)N(C(=O)CCl)c1ccc(Cl)cc1` show?
Return: 3.34
